test: yeast display, Sf9 membrane polyspecificity reagent, FACS + sequencing; frameworks hold sequencing errors
recorded metric: polyreactivity (PSR sort gate)

>>> value("QVQLVESGGGLVQAGGSLRLSCAASGRTFEYYAMGWYRQAPGKERELVAGISWSGGSTYYADSVKGRFTISRDNAKNTVYLQMNSLKPEDTAVYYCNARYLPRSTIYDYWGQGTQVTVSS")
"high polyreactivity"
>>> value("QVQLVESGGGLVQAGGSLRLSCAASGLTFSVYTMGWYRQAPGKERELVAAITTSGGRTYYADSVKGRFTISRDNAKNTVYLQMNSLKPEDTAVYYCAAVRTGDTTGTMGYWGQGTQVTVSS")
"high polyreactivity"
>>> value("QVQLVESGGGLVQAGGSLRLSCAASGSIFTNAMGWYIQAPGKERELVAAISSSGGSTYYADSVKGRFTISRDNANNTVYLQMNSLKPEDTAVYYCSADHFGGRDYWGQGTQVTVSS")
"low polyreactivity"
>>> value("QVQLVESGGGLVQAGGSLRLSCAASGITTRTYAMGWYRQAPGKDRELVAAISDSGDRTYYADSVKGRCTISRDKAKNTVYLQMNSLKPEDTAVYYCAVDAPGPRGEYWGQGTKVTVSS")
"low polyreactivity"
>>> value("QVQLVESGGGLVQAGGSLRLSCAPSGIIFIRYAMGWYRQAPGKERELVAAISWRGGSTYYADSVKGRFTISRDNAKNTVYLQMNSLKPEDTAVYYCAAGYFSYRRYDYWGQGTQVTVSS")
"high polyreactivity"
>>> value("QVQLVESGGGLVQAGGSLRLSCAASGRTFYRYGMGWYRQAPGKEREFVAAITRSGDSTYADSVKGRFTISRDNAKITVYLQMNSLKPEDTAVYYCAKVFLRQYAYRYYYWGQGTQVTVSS")
"high polyreactivity"
>>> value("QVQLVESGGGLVQAGGSLRLSCAASGSTFGGNAMGWYRQAPGKERELVAAISSTGGSTYYADSVKGRFTISRDNAKNTVYLQMNSLKPEDTAVYYCAALYHWTYDYWGQGTQVTVSS")
"low polyreactivity"
>>> value("QVQLVESGGGLVQAGGSLRLSCAASGSIFSDYTMGWYRQAPGKERELVAAISGIGGSTYYADSVKGRFTISRDNAKNTVYLQMNSLKPEDTAVYYCAADDYYYPYVSHDYWGQGTQVTVSS")
"low polyreactivity"
>>> value("QVQLVDSGGGLVQAGGSLRLSCDASGLIFFFYAMRWYRQAPGKERELVAAISDEGVSTDYADSVKGRFTISRDNAKNTVYLQMNSLKPEDTAVYYCAAKTERVYPWFSFGYWGQGTQVTVSS")
"low polyreactivity"
>>> value("QVQLVESGVGLVQAGGSLRLSCAASGSNFNTYTMGRYRQAPGKERELVAAITWSGGRTYYADSVKGRFTISRDNAKNTVYLQMNSLKPEDTAGYYCAADWGEDYTRDDYWGQGTQVTVSS")
"low polyreactivity"
>>> value("QVQHVESGGGLVQAGGSLRLSCAASGFIFWDYAMGWYRQAPGKERELVAAISDSGGDTYYADSVKGRFTISRDNAKNTVYLQMNSLIPEDTAVYYCAAETYCGGYPVTYDYWGQGTQVTVSS")
"low polyreactivity"
